Data origin: patent US20260242735A1

Quick list: Mean % WT Binding per entry.
Target: human CD33 L275A (human, UniProt P20138 18-364)
Sequence (P20138 18-364 L275A limits assumed): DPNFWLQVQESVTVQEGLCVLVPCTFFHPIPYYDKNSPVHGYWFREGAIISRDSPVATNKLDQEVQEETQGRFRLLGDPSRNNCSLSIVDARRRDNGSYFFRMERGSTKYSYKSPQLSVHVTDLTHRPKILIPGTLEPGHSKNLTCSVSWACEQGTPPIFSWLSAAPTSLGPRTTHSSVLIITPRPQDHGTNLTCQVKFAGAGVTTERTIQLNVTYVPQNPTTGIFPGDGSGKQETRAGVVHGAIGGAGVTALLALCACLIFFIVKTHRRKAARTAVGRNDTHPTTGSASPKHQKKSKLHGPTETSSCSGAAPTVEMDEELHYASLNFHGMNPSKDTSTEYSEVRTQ
Experiment: alanine scan, flow cytometry, HEK293-T;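 note: antibody binding to each alanine-substituted CD33 mutant expressed transiently in HEK293-T, read as fluorescence minus background, mean of duplicates, relative to wild-type CD33 set as 100%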
MEASUREMENT LABEL: Mean % WT Binding (% WT binding)

{"BINDER": "Refmab #1 (antibody, V domains shown, The alanine scan used IgG or Fab; also called hP67.6) VH: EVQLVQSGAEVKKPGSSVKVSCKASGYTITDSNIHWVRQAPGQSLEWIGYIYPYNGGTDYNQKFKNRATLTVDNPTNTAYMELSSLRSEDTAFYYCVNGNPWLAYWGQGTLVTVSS VL: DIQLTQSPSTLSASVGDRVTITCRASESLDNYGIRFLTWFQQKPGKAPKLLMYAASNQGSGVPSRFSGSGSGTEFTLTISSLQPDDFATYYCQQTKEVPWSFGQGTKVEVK", "MEASUREMENT LABEL": "Mean % WT Binding", "ENDPOINT RESULT": 88.7}
{"BINDER": "Refmab #2 (antibody, V domains shown, The alanine scan used IgG or Fab) VH: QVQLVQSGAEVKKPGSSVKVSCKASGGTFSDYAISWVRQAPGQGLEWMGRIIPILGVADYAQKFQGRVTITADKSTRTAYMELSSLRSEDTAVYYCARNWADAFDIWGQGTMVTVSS VL: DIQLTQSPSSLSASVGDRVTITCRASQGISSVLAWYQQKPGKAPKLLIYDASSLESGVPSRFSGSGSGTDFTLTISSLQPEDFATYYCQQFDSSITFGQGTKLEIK", "MEASUREMENT LABEL": "Mean % WT Binding", "ENDPOINT RESULT": 115}
{"BINDER": "Refmab #4 (antibody, V domains shown, The alanine scan used IgG or Fab) VH: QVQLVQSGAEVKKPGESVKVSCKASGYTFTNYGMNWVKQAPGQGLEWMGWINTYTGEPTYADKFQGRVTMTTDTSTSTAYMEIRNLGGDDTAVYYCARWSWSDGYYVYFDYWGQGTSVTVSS VL: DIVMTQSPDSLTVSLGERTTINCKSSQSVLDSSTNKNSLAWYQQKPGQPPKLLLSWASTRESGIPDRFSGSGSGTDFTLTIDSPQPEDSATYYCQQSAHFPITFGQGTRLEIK", "MEASUREMENT LABEL": "Mean % WT Binding", "ENDPOINT RESULT": 99.3}
{"BINDER": "Refmab #3 (antibody, V domains shown, The alanine scan used IgG or Fab) VH: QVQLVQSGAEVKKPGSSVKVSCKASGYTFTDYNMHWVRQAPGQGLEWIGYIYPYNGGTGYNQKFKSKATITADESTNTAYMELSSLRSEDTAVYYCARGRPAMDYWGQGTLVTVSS VL: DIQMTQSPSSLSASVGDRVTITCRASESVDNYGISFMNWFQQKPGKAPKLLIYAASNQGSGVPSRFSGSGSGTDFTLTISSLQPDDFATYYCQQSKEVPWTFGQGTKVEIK", "MEASUREMENT LABEL": "Mean % WT Binding", "ENDPOINT RESULT": 123}
